# Test system: drug-resistant Klebsiella pneumonia (ATCC700603)
# test: Minimum Inhibitory Concentration, micro-dilution broth
# Assay type: cell-based
# conditions-used: Drug resistant bacteria
Response key: 1.0 means Minimum Inhibitory Concentration K. pneumonia >= 10 µg/mL; 0.0 means Minimum Inhibitory Concentration K. pneumonia < 10 µg/mL.

compound | assigned-category
CCCCN(Cc1c2ccccc2c(Cl)c2ccccc12)C(=O)C(N)CCCCN.O=C(O)C(F)(F)F (centres unmarked) | 1.0
CCCCCCCCCCCCN(Cc1cccc2ccccc12)C(=O)[C@@H](N)CCCCN.O=C(O)C(F)(F)F | 0.0
CCN(Cc1c2ccccc2c(Cl)c2ccccc12)C(=O)C(N)CCCCN.O=C(O)C(F)(F)F (centres unmarked) | 1.0
CCCCN(Cc1cccc2ccccc12)C(=O)C(N)CCCCN.O=C(O)C(F)(F)F (centres unmarked) | 1.0
CCCCCCCCN(Cc1cccc2ccccc12)C(=O)C(N)CCCCN.O=C(O)C(F)(F)F (centres unmarked) | 1.0
CCCCCCCCN(Cc1c2ccccc2c(Cl)c2ccccc12)C(=O)[C@@H](N)CCCCN.O=C(O)C(F)(F)F | 0.0
CCCCCCCCCCN(Cc1c2ccccc2c(Cl)c2ccccc12)C(=O)[C@@H](N)CCCCN.O=C(O)C(F)(F)F | 0.0
CCCCN(Cc1ccccc1)C(=O)[C@@H](N)CCCCN.O=C(O)C(F)(F)F | 1.0
